Dear all, I have gathered published Ki values for 5-hydroxytryptamine receptor 1A (Homo sapiens, UniProt P08908); the list follows.
MEASUREMENT_TARGET: 5-hydroxytryptamine receptor 1A (Homo sapiens, UniProt P08908)
Sequence (P08908 whole entry): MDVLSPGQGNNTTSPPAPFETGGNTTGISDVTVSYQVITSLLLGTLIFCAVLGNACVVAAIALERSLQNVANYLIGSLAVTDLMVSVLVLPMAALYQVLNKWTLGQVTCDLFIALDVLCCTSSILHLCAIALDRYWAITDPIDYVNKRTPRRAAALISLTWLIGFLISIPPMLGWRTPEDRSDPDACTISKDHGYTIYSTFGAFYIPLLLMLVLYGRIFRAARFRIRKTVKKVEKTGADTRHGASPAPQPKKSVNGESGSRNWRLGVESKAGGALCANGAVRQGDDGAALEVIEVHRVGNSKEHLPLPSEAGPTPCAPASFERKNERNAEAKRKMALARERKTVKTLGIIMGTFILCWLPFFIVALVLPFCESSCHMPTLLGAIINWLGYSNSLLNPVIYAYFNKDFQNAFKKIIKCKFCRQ
One number for each entry, in µM.

{"COMPOUND": "Cc1ccc(OCc2nc(N)nc(N3CCN(C)CC3)n2)cc1", "Ki, µM": 28.5}
{"COMPOUND": "c1ccc(N2CC(CNCCc3c[nH]c4ccccc34)Oc3ccccc32)cc1 (stereo not given)", "Ki, µM": 0.0302}
{"COMPOUND": "Cc1cc(C(=O)N2CCc3cc4ccnc(N5CCN(C)CC5)c4cc32)c(C(F)(F)F)o1", "Ki, µM": 0.00501}
{"COMPOUND": "CC(C)c1ccccc1OCCCN1CCC(NS(=O)(=O)c2cccc(F)c2)CC1", "Ki, µM": 1.79}
{"COMPOUND": "CN1CCC(c2c[nH]c3ccc(NC(=O)c4ccsc4)nc23)CC1", "Ki, µM": 0.4}
{"COMPOUND": "NC(=O)[C@@H]1CCCN1C(=O)CCCCN1CCN(c2noc3ccccc23)CC1", "Ki, µM": 2.91}

Give one value of Ki per listed compound.
1. O=C(CCCN1CCC(O)(c2ccc(Cl)cc2)C1)c1ccc(F)cc1 (single isomer, unassigned; (+))
2. COc1cccc(Cl)c1OCCNCCOc1ccccc1OCc1ccccc1
3. c1ccc(COc2ccccc2OCCNCCOc2ccccc2)cc1

1. 0.772
2. 0.0316
3. 0.00794

----------
MEASUREMENT_TARGET: 5-hydroxytryptamine receptor 1A (Homo sapiens)
Sequence (P08908 whole entry): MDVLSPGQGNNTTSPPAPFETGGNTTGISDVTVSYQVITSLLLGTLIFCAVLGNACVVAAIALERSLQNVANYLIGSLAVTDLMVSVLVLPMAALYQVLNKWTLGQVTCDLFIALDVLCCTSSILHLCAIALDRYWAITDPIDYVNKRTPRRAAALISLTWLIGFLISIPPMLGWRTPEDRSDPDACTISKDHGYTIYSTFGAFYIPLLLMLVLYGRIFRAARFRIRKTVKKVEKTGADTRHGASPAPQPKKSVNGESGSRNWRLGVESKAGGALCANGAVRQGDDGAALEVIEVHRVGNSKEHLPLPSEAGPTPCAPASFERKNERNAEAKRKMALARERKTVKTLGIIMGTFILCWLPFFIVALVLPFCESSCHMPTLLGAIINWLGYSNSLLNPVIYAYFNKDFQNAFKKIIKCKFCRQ
Across several publications, the following log10 Ki results were reported for 5-hydroxytryptamine receptor 1A (Homo sapiens).
In our notation, the value equals log10 of Ki in nM.

Past entries and their recorded results:
{"COMPOUND": "COc1ccccc1N1CCN(CCN2CCC3(CCCC3)CC2=O)CC1", "log10 Ki": 0.37}
{"COMPOUND": "Clc1ccc(Sc2ccccc2N2CCNCC2)cc1Cl", "log10 Ki": 1.83}
{"COMPOUND": "CN(CCCc1c[nH]c2ccc(F)cc12)C1COc2ccc3c(c2C1)C(=O)NCC3 (racemic)", "log10 Ki": 1.36}
{"COMPOUND": "Cc1ccc2c(OCCN3CCC(Cc4cc5c(cc4F)OCC(=O)N5)CC3)cc(Cl)cc2n1", "log10 Ki": 0.40}
{"COMPOUND": "COc1ccccc1-c1cc(C2CCN(C)C2)ccc1Cl (stereo not given)", "log10 Ki": 2.30}
{"COMPOUND": "O=C(NCCCCN1CCN(c2ccccc2)CC1)[C@@H]1CCc2ccccc2N1", "log10 Ki": 1.93}
{"COMPOUND": "CSc1ccccc1N1CCN(CCCCCC(=O)NCc2ccc(OS(C)(=O)=O)cc2)CC1", "log10 Ki": 1.01}
{"COMPOUND": "O=C(NCC(O)CCN1CCN(c2cccc(Cl)c2Cl)CC1)c1ccc(-c2ccccn2)cc1 (stereo not given)", "log10 Ki": 1.18}
{"COMPOUND": "COc1nsnc1N1CCN(C[C@@H](Cc2ccccc2)N(C)C(=O)C2CCCCC2)CC1", "log10 Ki": 0.18}

response.value for COc1ccccc1N1CCN(CC(O)CN2C(=O)NC(C)(c3ccc(Br)cc3)C2=O)CC1.Cl (racemic) (field: log10 Ki) = 1.93

----------
MEASUREMENT_TARGET: 5-hydroxytryptamine receptor 1A (Homo sapiens, UniProt P08908)
Sequence (P08908 whole entry): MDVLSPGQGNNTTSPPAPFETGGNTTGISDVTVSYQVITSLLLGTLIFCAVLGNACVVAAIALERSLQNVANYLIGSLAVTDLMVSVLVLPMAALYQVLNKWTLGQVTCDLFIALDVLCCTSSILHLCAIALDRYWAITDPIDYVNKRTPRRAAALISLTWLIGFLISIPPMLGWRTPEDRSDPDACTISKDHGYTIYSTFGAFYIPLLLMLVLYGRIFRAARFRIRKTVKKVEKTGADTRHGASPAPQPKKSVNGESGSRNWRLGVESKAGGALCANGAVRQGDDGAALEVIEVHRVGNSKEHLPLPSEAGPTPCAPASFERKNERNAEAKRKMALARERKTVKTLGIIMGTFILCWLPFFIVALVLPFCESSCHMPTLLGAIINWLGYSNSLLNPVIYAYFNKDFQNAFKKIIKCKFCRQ
Please find below Ki measurements for 5-hydroxytryptamine receptor 1A (Homo sapiens, UniProt P08908), combined from several publications.
Numbers only, in nM.

{"MOLECULE": "CCC(Oc1cc(Cl)ccc1F)c1nc(N)nc(N2CCN(C)CC2)n1 (stereo not given)", "UNITS_OF_MEASURE": "nM", "Ki": 4400}
{"MOLECULE": "N#Cc1ccc(N2CCCN(CCC(O)c3csc4ccccc34)CC2)cc1 (stereo not given)", "UNITS_OF_MEASURE": "nM", "Ki": 3160}
{"MOLECULE": "CC(C)Oc1ccc(Br)c(CC2CCN(CCc3cc4c(cc3Cl)OCCO4)CC2)c1", "UNITS_OF_MEASURE": "nM", "Ki": 15.9}
{"MOLECULE": "COc1ccc2nc(NCCN3CCN(c4ccccc4OC)CC3)ccc2c1", "UNITS_OF_MEASURE": "nM", "Ki": 28}
{"MOLECULE": "O=C(NCCC(O)CN1CCN(c2cccc(Cl)c2Cl)CC1)c1ccc2c(c1)Cc1ccccc1-2 (stereo not given)", "UNITS_OF_MEASURE": "nM", "Ki": 1810}
{"MOLECULE": "COc1ccccc1N1CCN(CCCCCC(=O)N2Cc3ccccc3C2)CC1", "UNITS_OF_MEASURE": "nM", "Ki": 3.2}
{"MOLECULE": "COc1ccc2ccc(NCCCCN3CCN(c4ccccc4OC)CC3)nc2c1", "UNITS_OF_MEASURE": "nM", "Ki": 4.6}
{"MOLECULE": "COc1ccc(-c2ccccc2)c(CNC(=O)NCCCN2CCN(c3ccccc3OC)CC2)c1", "UNITS_OF_MEASURE": "nM", "Ki": 27}
{"MOLECULE": "CC(=O)c1c(OCCCN2CCN(c3cc(C)cc(C)c3)CC2)ccc2c(C)cc(=O)oc12", "UNITS_OF_MEASURE": "nM", "Ki": 0.9}
{"MOLECULE": "Cc1ccccc1N1CCN(CCN2C(=O)CC3(CCCC3)CC2=O)CC1", "UNITS_OF_MEASURE": "nM", "Ki": 25.4}

Report Ki for each item below.
1. COc1ccccc1N1CCN(CCNS(=O)(=O)c2cccc3c(N(C)C)cccc23)CC1
2. CN(CCCc1c[nH]c2ccc(F)cc12)C1COc2ccc3c(c2C1)C(=O)NC3 (racemic)
3. CC(=O)c1c(OCCCN2CCN(c3cccc(F)c3)CC2)ccc2c(C)cc(=O)oc12
4. CC1(c2ccccc2)NC(=O)N(CC(O)CN2CCN(c3ccccc3C#N)CC2)C1=O.Cl (racemic)
5. COc1cc2c(cc1OC)C(=O)N(CCCCN1CCN(c3ccccn3)CC1)CCC2
6. COc1cccc2c1CC(NCCCc1c[nH]c3ccc(F)cc13)CO2 (racemic)

73
22
1350
585
1.2
70.4
